Assay system: SARS-CoV-2 spike protein, B1.1.7 (alpha variant), borne on lentiviral pseudovirus (SARS-CoV-2, B1.1.7)
Assay comment: cell-based or functional assay
# Pseudo Neut, B1.1.7 IC50 (pM) listing for each entry below
Measured quantity: Pseudo Neut, B1.1.7 IC50 (pM)

binder="antibody 3086 (antibody, V domains shown) VH: QVQLQESGPGLVKPSETLSLTCTVSGGSISGHYWSWIRQPPGKGLEWIGYIYYSGSTNYNPSLKSRVTISVDTSVNQFSLKLSSVTAADTAVYYCARQEARDAVGNYFFDSWGQGTLVTVSS VL: QSALTQPASVSGSPGQSITISCSGTSSDIGSYDLVSWYQQHPGKAPKLLIYDVTKRPSGVSHRFSGSKSGNTASLTISGLQGEDEADYYCCSYVHFSTWVFGGGTKLTVL" value=71
binder="antibody 980 (antibody, V domains shown) VH: QVQLVESGGGVVQPGRSLRLSCAASGFTFSRYGMHWVRQAPGKGLEWVALISSGGSNKYYADSVKGRFTISRDNSKNTLYLEMNSLRAEDTAVYYCAKDAIYDYIWGAYRENWFDPWGQGTLVTVSS VL: DIQMTQSPSSLSASVGDRVTITCRASQSISNYLNWYQQKPGKAPNLLIYAASSLQSGVPSRFSGSGSGTDFTLTISSLQPEDFATYYCQQTSSPPLTFGQGTKVEIK" value=1670
